All figures here come from patent US12052991B2.

# System: Setaria viridis (SETVI)
# Assay Protocol: Herbicidal pre-emergence action, test C (Table C4)
# Assay type: in vivo
# Assay Conditions: dosage 1280 g/ha; visual scoring after about 3 weeks; 100% = plants have died, 0% = like control plants
Readout Name: Pre-emergence action against Setaria viridis (SETVI) (%)
Kindly provide the numeric value in % only, without the unit symbol.

Input line: Could you share what Pre-emergence action against Setaria viridis (SETVI) was measured for Cc1cc(F)c(-c2cc(C(F)F)no2)c(Oc2ncc(Cl)cc2F)c1 , tested on Setaria viridis (SETVI)?
Output line: 100

Input line: Hi! What's the reported Pre-emergence action against Setaria viridis (SETVI) for FC(F)c1cc(-c2ccccc2Oc2ccc(Cl)cn2)on1 on Setaria viridis (SETVI)?
Output line: 100

Input line: Query for Setaria viridis (SETVI): what Pre-emergence action against Setaria viridis (SETVI) does the record show for FC(F)c1cc(-c2ccc(Br)cc2Oc2ccc(Cl)cn2)on1 ?
Output line: 100

Input line: Field: Pre-emergence action against Setaria viridis (SETVI) (Setaria viridis (SETVI)). Entry: Cc1ccc(-c2cc(C(F)F)no2)c(Oc2ccc(Cl)cn2)c1
Output line: 90

Input line: Form entry - test system: Setaria viridis (SETVI); read-out: Pre-emergence action against Setaria viridis (SETVI); molecule: Fc1cc(Cl)cnc1Oc1ccccc1-c1cncc(C(F)(F)F)c1
Output line: 100

Input line: Which Pre-emergence action against Setaria viridis (SETVI) is reported with Setaria viridis (SETVI) for this entry: Cc1cc(C)c(-c2cc(C(F)F)no2)c(Oc2ncc(Cl)cc2F)c1 ?
Output line: 100

* * *

Listed here: items and their measured Pre-emergence action against Setaria viridis (SETVI).
# System: Setaria viridis (SETVI)
# Assay Protocol: Herbicidal pre-emergence action, test C (Table C4)
# Format: in vivo
# Assay Conditions: dosage 1280 g/ha; visual scoring after about 3 weeks; 100% = plants have died, 0% = like control plants
Give the number; % is assumed, so skip it.

Consider the following illustrative entries.
{"Molecular String": "Cn1nc(-c2c(F)cccc2Oc2ccc(Cl)cn2)cc1C(F)F", "Meas Value": 100}
{"Molecular String": "Cn1nc(-c2c(F)cccc2Oc2ncc(Cl)cc2F)cc1C(F)F", "Meas Value": 90}
{"Molecular String": "Fc1ccc(Oc2ncc(Cl)cc2F)c(-c2cc(C(F)F)on2)c1", "Meas Value": 100}

Input line: // Pre-emergence action against Setaria viridis (SETVI) lookup, key: FC(F)c1cc(-c2c(Oc3ccc(Cl)cn3)cccc2C2CC2)on1
Output line: 100

* * *

# System: wheat (TRZAS, var. Triso)
# Assay Protocol: Pre-emergence crop plant compatibility (Table E1)
# Format: in vivo
# Assay Conditions: dosage 80 g/ha, scored after about 3 weeks, 0% = like control plants
Each entry below carries its recorded Crop plant compatibility in pre-emergence, TRZAS (damage to wheat).
Reply numerically in %, unit not repeated.

Previously resolved entries follow.
{"Molecular String": "Fc1cc(Cl)cnc1Oc1ccccc1-c1cc(C(F)F)no1", "System Under Test": "wheat (TRZAS, var. Triso)", "Meas Value": 0}
{"Molecular String": "Fc1cc(Cl)cnc1Oc1cccc(F)c1-c1cc(C(F)F)no1", "System Under Test": "wheat (TRZAS, var. Triso)", "Meas Value": 30}
{"Molecular String": "FC(F)c1cc(-c2ccccc2Oc2ncc(Cl)cn2)on1", "System Under Test": "wheat (TRZAS, var. Triso)", "Meas Value": 20}
{"Molecular String": "Fc1cccc(Oc2ccc(Cl)cn2)c1-c1cc(C(F)F)no1", "System Under Test": "wheat (TRZAS, var. Triso)", "Meas Value": 20}
{"Molecular String": "FC(F)c1cc(-c2ccccc2Oc2ccc(Cl)cn2)on1", "System Under Test": "wheat (TRZAS, var. Triso)", "Meas Value": 0}

Input line: Consider the compound Fc1cccc(Oc2ncc(Cl)cn2)c1-c1cc(C(F)F)no1 and give its measured Crop plant compatibility in pre-emergence, TRZAS (damage to wheat).
Output line: 70
